assayed-system: δ opioid receptor (Homo sapiens, UniProt P41143)
Construct: expressed in transfected cells; host or cells: CHO cells (membranes)
run-description: Competition binding assay on membranes of CHO cells expressing δ opioid receptor, [3H]-labeled ligand
settings: Table 3-1; read-out: δOR Ki
readout: Ki (nM)
A number alone suffices; assume nM.

molecule="COc1cccc(C2(O)CCN(C(=O)Nc3ccccc3)CC2CN(C)C)c1.Cl (centres unmarked) [FWBF1, hydrochloride]" unit_annotation=nM quantitative_result=849

Q: // fetch Ki given entry COc1cccc(C2(O)CCN(C(=O)Nc3cccc(Cl)c3)CC2CN(C)C)c1.Cl (centres unmarked) [FWBF2, hydrochloride]
Ans: 537

* * *

assayed-system: μ opioid receptor (Homo sapiens, UniProt P35372)
Construct: expressed in transfected cells; host or cells: CHO cells (membranes)
run-description: Competition binding assay on membranes of CHO cells expressing μ opioid receptor, [3H]-labeled ligand
settings: Table 2-1; read-out: μOR Ki
Counter-ions that a name gives are not always drawn.
readout: Ki (nM)
A number alone suffices; assume nM.

compound="COc1cccc(C2(O)CCN(S(=O)(=O)Cc3ccc(C)cc3)CC2CN(C)C)c1.Cl (stereo not shown) [FWBH8, hydrochloride]" quantitative_result=247
compound="COc1cccc(C2(O)CCN(S(=O)(=O)Cc3ccccc3F)CC2CN(C)C)c1.Cl (stereo not shown) [FWBH14, hydrochloride]" quantitative_result=29.6
compound="CCCCS(=O)(=O)N1CCC(O)(c2cccc(OC)c2)C(CN(C)C)C1.Cl (stereo not shown) [FWBH15, hydrochloride]" quantitative_result=34.9

Q: // fetch Ki given entry COc1cccc(C2(O)CCN(S(=O)(=O)Cc3cccc(C(F)(F)F)c3)CC2CN(C)C)c1.Cl (stereo not shown) [FWBH10, hydrochloride]
Ans: 4.68

Q: // fetch Ki given entry CN(C)CC1CN(S(=O)(=O)Cc2ccccc2)CCC1(O)c1cccc(OC(F)(F)F)c1.Cl (stereo not shown) [hydrochloride]
Ans: 64.5

Q: // fetch Ki given entry COc1cccc(C2(O)CCN(S(=O)(=O)CCc3ccccc3)CC2CN(C)C)c1.Cl (stereo not shown) [FWBH9, hydrochloride]
Ans: 1.79

Q: // fetch Ki given entry COc1cccc(C2(O)CCN(S(=O)(=O)C[C@]34CC[C@H](CC3=O)C4(C)C)CC2CN(C)C)c1 (stereo partly shown) [FWBH25, hydrochloride]
Ans: 50.8

* * *

assayed-system: δ opioid receptor (Homo sapiens, UniProt P41143)
Construct: expressed in transfected cells; host or cells: CHO cells (membranes)
run-description: Competition binding assay on membranes of CHO cells expressing δ opioid receptor, [3H]-labeled ligand
settings: Table 5-1; read-out: δOR Ki
Ki listing for selected compounds.

compound="COc1cccc(C2(O)CCN(C(=O)Cc3ccc4ccccc4c3)CC2CN(C)C)c1.Cl (stereo not shown) [FWBE15, hydrochloride]" result="> 10 µM"

Q: // fetch Ki given entry COc1cccc(C2(O)CCN(C(=O)C3(c4ccccc4)CCCC3)CC2CN(C)C)c1.Cl (stereo not shown) [FWBE26, hydrochloride]
Ans: 1.64 µM

Q: // fetch Ki given entry COc1cccc(C2(O)CCN(C(=O)Cc3cccc4ccccc34)CC2CN(C)C)c1.Cl (stereo not shown) [FWBE16, hydrochloride]
Ans: 2.16 µM

* * *

assayed-system: κ opioid receptor (Homo sapiens)
Construct: expressed in transfected cells; host or cells: CHO cells (membranes)
run-description: Competition binding assay on membranes of CHO cells expressing κ opioid receptor, [3H]-labeled ligand
settings: 0.5 h; Table 3-1; 1 μM concentration of compounds; read-out: κOR Binding rate (%)
Structures can show the parent of a compound that is named as a salt.
readout: inhibition at 1 µM (%)
A number alone suffices; assume %.

# annotated cases, reported inhibition at 1 µM shown
compound="COc1cccc(C2(O)CCN(C(=O)NC34CC5CC(CC(O)(C5)C3)C4)CC2CN(C)C)c1.Cl (stereo not shown) [FWBF16, hydrochloride]" assayed_system="κ opioid receptor (Homo sapiens)" quantitative_result=0
compound="COC(=O)c1ccsc1NC(=O)N1CCC(O)(c2cccc(OC)c2)C(CN(C)C)C1 (stereo not shown) [FWBF18, hydrochloride]" assayed_system="κ opioid receptor (Homo sapiens)" quantitative_result=9.2
compound="COc1cccc(C2(O)CCN(C(=O)N(C)c3cccc(Cl)c3)CC2CN(C)C)c1.Cl (stereo not shown) [FWBF3, hydrochloride]" assayed_system="κ opioid receptor (Homo sapiens)" quantitative_result=14
compound="COc1cccc(C2(O)CCN(C(=O)Nc3ccc(F)c(Cl)c3)CC2CN(C)C)c1 (stereo not shown) [FWBF9, hydrochloride]" assayed_system="κ opioid receptor (Homo sapiens)" quantitative_result=7.1
compound="COc1cccc(C2(O)CCN(C(=O)Nc3ccc(Cl)cc3)CC2CN(C)C)c1.Cl (stereo not shown) [FWBF4, hydrochloride]" assayed_system="κ opioid receptor (Homo sapiens)" quantitative_result=22.1

Q: Quote inhibition at 1 µM with test system κ opioid receptor (Homo sapiens) for COc1cccc(C2(O)CCN(C(=O)Nc3cc(Cl)c(Cl)c(Cl)c3)CC2CN(C)C)c1 (stereo not shown) [FWBF6, hydrochloride]
Ans: 0

Q: Quote inhibition at 1 µM with test system κ opioid receptor (Homo sapiens) for COc1cccc(C2(O)CCN(C(=O)NCc3ccccc3)CC2CN(C)C)c1 (stereo not shown) [FWBF12, hydrochloride]
Ans: 5.1
